Test system: human lung cancer strain NCI-H441
Experiment: NCI-H441 cell proliferation inhibitory activity (CellTiter-Glo, 4 days)
Assay type: cell-based
Conditions: NCI-H441 cells, 4 days, read-out: NCl-H441 IC50
measured.attribute: IC50 (nM)
Answers are plain numbers, in nM.

Dear colleague, could you send me IC50 for each of the items below? Thanks.
1. CCO[C@H](C)[C@@H]1NC(=O)[C@H](CC(C)C)N(C)C(=O)C[C@@H](C(=O)N(C)CC)N(C)C(=O)[C@H](C2CCCC2)N(C)C(=O)C2(CC(C)(C)C2)NC(=O)[C@@H]2C[C@H](C)CN2C(=O)[C@H](CCc2ccc(C(F)(F)F)c(OC)c2)NC(=O)CN(C)C(=O)[C@H](Cc2ccc(C)cc2)N2CC/C=C\C[C@@H](C2=O)N(C)C(=O)CN(C)C1=O
2. CCC[C@H]1C(=O)N[C@@H]([C@@H](C)CC)C(=O)N2CCC[C@H]2C(=O)N(C)[C@H]2C/C=C\CCN(C2=O)[C@@H](Cc2ccc(C(F)(F)F)cc2)C(=O)N(C)CC(=O)N[C@@H](CCc2ccc(C(F)(F)F)c(Cl)c2)C(=O)N2CC[C@H](OC)[C@H]2C(=O)N(C)C2(CCC2)C(=O)N(C)[C@@H](C2CCCC2)C(=O)N(C)[C@H](C(=O)N(C)C)CC(=O)N1C

Data returned:
1. 115
2. 17.6

====

For each entry below, report its pIC50 value.
Tested on: human lung cancer strain NCI-H441
Type: cell-based
Where a SMILES comes first, the peptide text is derived from it. Bridges are numbered along the chain shown (N, C = ends). [ ]: non-standard residue; d: D form. The star is where a group is joined. hPhe(3-Cl-4-CF3) = N[C@@H](CCc1ccc(C(F)(F)F)c(Cl)c1)C(=O)O; NPrPhe(4-CF3) = CCCN[C@@H](Cc1ccc(C(F)(F)F)cc1)C(=O)O; NEtPhe(4-F) = CCN[C@@H](Cc1ccc(F)cc1)C(=O)O; Abu(4,4,4-F3) = N[C@@H](CC(F)(F)F)C(=O)O; Morpholine(3S-CO) = O=C(O)[C@@H]1COCCN1; NMeGly(cPent) = CN[C@H](C(=O)O)C1CCCC1; Pro(4,4-F2) = O=C(O)[C@@H]1CC(F)(F)CN1; NMeD = CN[C@@H](CC(=O)O)C(=O)O; NMeL = CN[C@@H](CC(C)C)C(=O)O; Morpholide = C1CN(*)CCO1; NMeA = CN[C@@H](C)C(=O)O; Ac5c = NC1(C(=O)O)CCCC1; Aze = O=C(O)[C@@H]1CCN1; Ac4c = NC1(C(=O)O)CCC1; Sar = CNCC(=O)O
One number for each entry, as −log10 of the molar value.

>>> value_measured("CCO[C@@H]1C[C@H]2C(=O)NC3(CCC3)C(=O)N(C)[C@@H](C3CCCC3)C(=O)N(C)[C@H](C(=O)N3CCOCC3)CC(=O)N(C)[C@@H](COC)C(=O)N[C@@H]([C@@H](C)CC)C(=O)N(C)CC(=O)N(C)[C@H]3CCCCN(C3=O)[C@@H](Cc3ccc(C(F)(F)F)cc3)C(=O)N(C)CC(=O)N[C@@H](CCc3cc(F)c(C(F)(F)F)c(F)c3)C(=O)N2C1 [PP0719]")
8.07

Dear colleague, could you send me pIC50 for each of the items below? Thanks.
1. CC[C@H](C)[C@@H]1NC(=O)[C@H](CC(C)C)N(C)C(=O)C[C@@H](C(=O)N2CCOCC2)N(C)C(=O)[C@H](C2CCCC2)N(C)C(=O)C2(CCCC2)NC(=O)[C@@H]2CCCN2C(=O)[C@H](CCc2ccc(C(F)(F)F)c(Cl)c2)NC(=O)CN(C)C(=O)[C@H](Cc2ccc(F)cc2)N(CC)C(=O)CN(C)C(=O)CN(C)C1=O [PP0213] ([NMeL]I[Sar][Sar][NEtPhe(4-F)][Sar][hPhe(3-Cl-4-CF3)]P[Ac5c][NMeGly(cPent)][NMeD]-Morpholide; lactam N-11)
2. CCCN1C(=O)[C@@H]2CCN2C(=O)[C@H](C)N(C)C(=O)[C@H](CC(F)(F)F)NC(=O)[C@H](CC(C)C)N(C)C(=O)C[C@@H](C(=O)N2CCOCC2)N(C)C(=O)[C@H](C2CCCC2)N(C)C(=O)C2(CCCC2)NC(=O)[C@@H]2CCCN2C(=O)[C@H](CCc2ccc(C(F)(F)F)c(Cl)c2)NC(=O)CN(C)C(=O)[C@@H]1Cc1ccc(C(F)(F)F)cc1 [PP0270] ([NMeL][Abu(4,4,4-F3)][NMeA][Aze][NPrPhe(4-CF3)][Sar][hPhe(3-Cl-4-CF3)]P[Ac5c][NMeGly(cPent)][NMeD]-Morpholide; lactam N-11)
3. CCO[C@@H]1C[C@H]2C(=O)NC3(CC(C)(C)C3)C(=O)N(C)[C@@H](C3CCCC3)C(=O)N(C)[C@H](C(=O)N(C)C)CC(=O)N(C)[C@@H](CC(F)(F)F)C(=O)N[C@@H]([C@@H](C)CC)C(=O)N(C)CC(=O)N(C)[C@H]3C/C=C\CCN(C3=O)[C@@H](Cc3ccc(C(F)(F)F)cc3)C(=O)N(C)CC(=O)N[C@@H](CCc3ccc(C(F)(F)F)c(Cl)c3)C(=O)N2C1 [PP2833]
4. CCCN1C(=O)CN(C)C(=O)[C@@H]2CCN2C(=O)[C@H]([C@@H](C)CC)NC(=O)[C@H](CC(C)C)N(C)C(=O)C[C@@H](C(=O)N2CCOCC2)N(C)C(=O)[C@H](C2CCCC2)N(C)C(=O)C2(CCCC2)NC(=O)[C@@H]2COCCN2C(=O)[C@H](CCc2ccc(C(F)(F)F)c(Cl)c2)NC(=O)CN(C)C(=O)[C@@H]1Cc1ccc(C(F)(F)F)cc1 [PP0313] ([NMeL]I[Aze][Sar][NPrPhe(4-CF3)][Sar][hPhe(3-Cl-4-CF3)][Morpholine(3S-CO)][Ac5c][NMeGly(cPent)][NMeD]-Morpholide; lactam N-11)
5. CCC[C@H]1C(=O)N[C@@H]([C@@H](C)CC)C(=O)N(C2CC2)CC(=O)N(C)[C@H]2C/C=C\CCN(C2=O)[C@@H](CC2CCC(F)(F)CC2)C(=O)N(C)CC(=O)N[C@@H](CCc2ccc(C(F)(F)F)c(OC)c2)C(=O)N2C[C@H](OCC)C[C@H]2C(=O)N(C)C2(CCC2)C(=O)N(C)[C@@H](C2CCCC2)C(=O)N(C)[C@H](C(=O)N(C)C)CC(=O)N1C [PP2352]
6. CCO[C@@H]1C[C@H]2C(=O)NC3(CCC3)C(=O)N(C)[C@@H](C3CCCC3)C(=O)N(C)[C@H](C(=O)N(C)C)CC(=O)N(C)[C@@H](CC3CCCC3)C(=O)N[C@@H]([C@@H](C)CC)C(=O)N(C)CC(=O)N(C)[C@H]3C/C=C\CCN(C3=O)[C@@H](Cc3ccc(C)cc3)C(=O)N(C)CC(=O)N[C@@H](CCc3ccc(Cl)c(Cl)c3)C(=O)N2C1 [PP1487]

Data returned:
[7.99, 8.07, 8.42, 7.25, 7.81, 7.33]

Dear colleague, could you send me pIC50 for each of the items below? Thanks.
1. CCCN1C(=O)[C@@H]2CCN2C(=O)[C@H](C)N(C)C(=O)[C@H]([C@@H](C)CC)NC(=O)[C@H](CC(C)C)N(C)C(=O)C[C@@H](C(=O)N2CCOCC2)NC(=O)[C@H](C2CCCC2)N(C)C(=O)C2(CCC2)NC(=O)[C@@H]2CC(F)(F)CN2C(=O)[C@H](CCc2ccc(C(F)(F)F)c(Cl)c2)NC(=O)CN(C)C(=O)[C@@H]1Cc1ccc(C(F)(F)F)cc1 [PP0346] ([NMeL]I[NMeA][Aze][NPrPhe(4-CF3)][Sar][hPhe(3-Cl-4-CF3)][Pro(4,4-F2)][Ac4c][NMeGly(cPent)]D-Morpholide; lactam N-11)
2. CCC[C@H]1C(=O)N[C@@H]([C@@H](C)CC)C(=O)N(C)CC(=O)N(C)[C@H]2C/C=C\CCN(C2=O)[C@@H](Cc2ccc(C(F)(F)F)cc2)C(=O)N(C)CC(=O)N[C@@H](CCc2ccc3c(C)c(C)n(C)c3c2)C(=O)N2C[C@H](OCC)C[C@H]2C(=O)NC2(CC(C)(C)C2)C(=O)N(C)[C@@H](C(CC)CC)C(=O)N(C)[C@H](C(=O)N(C)C)CC(=O)N1C [PP2904]

Data returned:
[7.16, 7.08]
